This collection of values is drawn from patent US10464964B2.

# system.under.test: Galectin 1 (Homo sapiens, UniProt P09382)
# Sequence (P09382 whole entry): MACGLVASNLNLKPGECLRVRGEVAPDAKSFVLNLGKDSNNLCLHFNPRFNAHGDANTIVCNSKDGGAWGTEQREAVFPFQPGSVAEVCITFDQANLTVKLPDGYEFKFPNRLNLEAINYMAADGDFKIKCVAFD
# experimental.protocol: fluorescence anisotropy assay, inhibition of galectin / fluorescein tagged saccharide probe interaction
property.label: pKd
# log scale: pKd equals minus log10 of the concentration in mol/L

Note to self: pKd of OCC1O[C@@H](SC2O[C@H](CO)C(O)C(n3cc(-c4ccc(F)cn4)nn3)[C@H]2O)C(O)C(n2cc(-c3cc(F)c(F)c(F)c3)nn2)[C@H]1O (stereo in doubt) with Galectin 1 (Homo sapiens, UniProt P09382) was 7.40

Summary: OCC1O[C@@H](SC2O[C@H](CO)C(O)C(n3cc(-c4ncc(F)cn4)nn3)[C@H]2O)C(O)C(n2cc(-c3cc(F)c(F)c(F)c3)nn2)[C@H]1O (stereo in doubt) , Galectin 1 (Homo sapiens, UniProt P09382), pKd = 7.26

Hey, Galectin 1 (Homo sapiens, UniProt P09382) data for CC(=O)Nc1ccc(-c2cn(C3C(O)[C@@H](CO)OC(S[C@@H]4OC(CO)[C@H](O)C(n5cc(-c6cc(F)c(F)c(F)c6)nn5)C4O)[C@@H]3O)nn2)cn1 (stereo in doubt) : pKd came out at 6.83

Let me check: OCC1O[C@@H](SC2O[C@H](CO)C(O)C(n3cc(-c4ccc(F)cn4)nn3)[C@H]2O)C(O)C(n2cc(-c3ccc(F)cn3)nn2)[C@H]1O (stereo in doubt) , system Galectin 1 (Homo sapiens, UniProt P09382), measured pKd is 7.68

Entry COc1ccc(-c2cn(C3C(O)[C@@H](CO)OC(S[C@@H]4OC(CO)[C@H](O)[C@H](n5cc(-c6ccc(OC)nc6)nn5)C4O)[C@@H]3O)nn2)cn1 (some centres unmarked) under Galectin 1 (Homo sapiens, UniProt P09382) had pKd of 6.92
